- Tested system: human MDM2 (GST-hMDM2 1-188), interaction with biotinylated-p53 (1-83) (Homo sapiens)
- Construct: Amino acid residues 1-188 of human MDM2 were expressed
- Assay remarks: improved HTRF assay (HTRF2 assay), inhibition of HDM2-p53 interaction
- Conditions: 0.2 nM GST-hMDM2, 0.5 nM biotinylated-p53, 100 mM KF
Threshold-based label: IC50 under 5 nM gives met, IC50 not under 5 nM gives not met.

In plain terms, does C[C@@H](CS(=O)(=O)C(C)(C)C)N1C(=O)[C@@H](CC(=O)NCCO)O[C@H](c2cccc(Cl)c2)[C@H]1c1ccc(Cl)cc1 (single isomer, unassigned) [Example 234] come in under 5 nM for IC50?
not met

In plain terms, does CC(C)(C)S(=O)(=O)C[C@H](C1CC1)N1C(=O)[C@@H](CC(=O)Nc2ccccc2F)O[C@H](c2cccc(Cl)c2)[C@H]1c1ccc(Cl)cc1 (single isomer, unassigned) [Example 353] come in under 5 nM for IC50?
not met

In plain terms, does CC[C@@H](CS(=O)(=O)C1CCC1)N1C(=O)[C@@H](CC(=O)O)O[C@H](c2cccc(Cl)c2)[C@H]1c1ccc(Cl)cc1 (single isomer, unassigned) [Example 142] come in under 5 nM for IC50?
not met

In plain terms, does C[C@@H](CSC(C)(C)C)N1C(=O)CO[C@H](c2cccc(Cl)c2)[C@H]1c1ccc(Cl)cc1 [Example 222] come in under 5 nM for IC50?
not met

In plain terms, does O=C1[C@@H](Cc2cnn[nH]2)O[C@H](c2cccc(Cl)c2)[C@@H](c2ccc(Cl)cc2)N1[C@H](CN(c1ccccc1F)S(=O)(=O)C1CC1)C1CC1 (single isomer, unassigned) [Example 395] come in under 5 nM for IC50?
met

In plain terms, does CC(C)(C)S(=O)(=O)C[C@H](C1CC1)N1C(=O)[C@@H](CC(=O)Nc2ccccc2)O[C@H](c2cccc(Cl)c2)[C@H]1c1ccc(Cl)cc1 (single isomer, unassigned) [Example 350] come in under 5 nM for IC50?
not met

In plain terms, does O=C(O)C[C@H]1O[C@H](c2cccc(Cl)c2)[C@@H](c2ccc(Cl)cc2)N([C@H](CN(c2ccccc2F)S(=O)(=O)C2CC2)C2CC2)C1=O (single isomer, unassigned) [Example 158] come in under 5 nM for IC50?
met

In plain terms, does O=C(O)C[C@H]1O[C@H](c2cccc(Cl)c2)[C@@H](c2ccc(Cl)cc2)N([C@H](CN(c2cc(F)ccc2F)S(=O)(=O)C2CC2)C2CC2)C1=O (single isomer, unassigned) [Example 275] come in under 5 nM for IC50?
met

* * *

Field: IC50. Provide a value for each of the compounds that follow.
- Tested system: human MDM2 (GST-hMDM2 aa 1-188), interaction with biotinylated-p53 (aa 1-83) (Homo sapiens, UniProt Q00987)
- Construct: Amino acid residues 1-188 of human MDM2 were expressed
- Assay remarks: Homogenous Time-Resolved Fluorescence Assay (HTRF1 assay), inhibition of HDM2-p53 interaction
- Conditions: 2.5 nM GST-hMDM2, 5 nM biotinylated-p53, 200 mM KF
I only need the number, in µM, no unit after it.

Per the records, this compound ( Cc1ccc([C@@H]2[C@@H](c3cccc(Cl)c3)O[C@H](CC(=O)O)C(=O)N2CC2CC2)cc1 [Example 61] ) has IC50 equal to 0.6

Per the records, this compound ( Cn1c([C@@H]2[C@@H](c3cccc(Cl)c3)O[C@H](CC(=O)O)C(=O)N2CC2CC2)nc2ccccc21.Cn1c([C@H]2[C@H](c3cccc(Cl)c3)O[C@@H](CC(=O)O)C(=O)N2CC2CC2)nc2ccccc21 (mixture of isomers) [Example 6] ) has IC50 equal to 46.7

Per the records, this compound ( O=C(O)C[C@H]1O[C@H](c2cccc(Cl)c2)[C@@H](c2ccc(Cl)cc2)N(C2CCCCC2)C1=O [Example 17] ) has IC50 equal to 0.2

Per the records, this compound ( COc1ccc([C@@H]2[C@@H](c3cccc(Cl)c3)OC(CC(=O)O)C(=O)N2CC2CC2)cc1 (single isomer, unassigned) [Example 76] ) has IC50 equal to 1.4

Per the records, this compound ( O=C(O)C[C@@H]1O[C@H](c2cccc(Cl)c2)[C@@H](c2ccccc2)N(CC2CC2)C1=O [Example 55] ) has IC50 equal to 3.3

Per the records, this compound ( COc1ccc([C@@H]2[C@@H](c3cccc(Cl)c3)OC(CC(=O)O)C(=O)N2CC2CC2)cc1 (single isomer, unassigned) [Example 75] ) has IC50 equal to 3.7

Per the records, this compound ( O=C(O)CC1O[C@H](c2cc(Cl)cc(Br)c2)[C@@H](c2ccc(Cl)cc2)N(CC2CC2)C1=O (single isomer, unassigned) [Example 104] ) has IC50 equal to 0.5

* * *

Field: IC50. Provide a value for each of the molecules that follow.
- Tested system: human MDM2 (GST-hMDM2 1-188), interaction with biotinylated-p53 (1-83) (Homo sapiens, UniProt Q00987)
- Construct: Amino acid residues 1-188 of human MDM2 were expressed
- Sequence (Q00987 1-188): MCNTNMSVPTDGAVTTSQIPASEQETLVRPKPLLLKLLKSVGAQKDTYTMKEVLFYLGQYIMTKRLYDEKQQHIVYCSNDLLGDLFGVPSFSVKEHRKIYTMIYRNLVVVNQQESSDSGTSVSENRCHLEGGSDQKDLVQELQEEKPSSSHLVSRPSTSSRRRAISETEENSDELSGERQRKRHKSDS
- Assay remarks: improved HTRF assay (HTRF2 assay), inhibition of HDM2-p53 interaction
- Conditions: 0.2 nM GST-hMDM2, 0.5 nM biotinylated-p53, 100 mM KF

Per the records, this molecule ( CC(C)(C)S(=O)(=O)C[C@H](C1CC1)N1C(=O)[C@@](C)(CC(=O)O)O[C@H](c2cccc(Cl)c2)[C@H]1c1ccc(Cl)cc1 (single isomer, unassigned) [Example 334] ) has IC50 equal to < 1 nM

Per the records, this molecule ( O=C1[C@@H](Cc2nnn[nH]2)O[C@H](c2cccc(Cl)c2)[C@@H](c2ccc(Cl)cc2)N1[C@H](CN(c1ccccc1F)S(=O)(=O)C1CC1)C1CC1 (single isomer, unassigned) [Example 399] ) has IC50 equal to < 1 nM

Per the records, this molecule ( C[C@]1(CC(=O)O)O[C@H](c2cccc(Cl)c2)[C@@H](c2ccc(Cl)cc2)N([C@H](CN(c2ccccc2F)S(=O)(=O)C2CC2)C2CC2)C1=O (single isomer, unassigned) [Example 331] ) has IC50 equal to < 1 nM

* * *

- Tested system: human MDM2 (GST-hMDM2 1-188), interaction with biotinylated-p53 (1-83) (Homo sapiens, UniProt Q00987)
- Construct: Amino acid residues 1-188 of human MDM2 were expressed
- Assay remarks: improved HTRF assay (HTRF2 assay), inhibition of HDM2-p53 interaction
- Conditions: 0.2 nM GST-hMDM2, 0.5 nM biotinylated-p53, 100 mM KF
Measured attribute: IC50 (nM)
I only need the number, in nM, no unit after it.

Per the records, this molecule ( CC(C)(C)S(=O)(=O)C[C@H](C1CC1)N1C(=O)[C@@H](CC(=O)O)O[C@H](c2ccc(C#N)c(Cl)c2)[C@H]1c1ccc(Cl)cc1 (single isomer, unassigned) [Example 324] ) has IC50 equal to 7

Per the records, this molecule ( CC(C)(C)SC[C@H](C1CC1)N1C(=O)[C@@H](CC(=O)O)O[C@H](c2ccc(Br)c(Cl)c2)[C@H]1c1ccc(Cl)cc1 (single isomer, unassigned) [Example 323] ) has IC50 equal to 16

Per the records, this molecule ( C[C@@H](CS(=O)(=O)C(C)(C)C)N1C(=O)[C@H](CC(N)=O)O[C@H](c2cccc(Cl)c2)[C@H]1c1ccc(Cl)cc1 (single isomer, unassigned) ) has IC50 equal to 11

* * *

- Tested system: human MDM2 (GST-hMDM2 aa 1-188), interaction with biotinylated-p53 (aa 1-83) (Homo sapiens)
- Construct: Amino acid residues 1-188 of human MDM2 were expressed
- Assay remarks: Homogenous Time-Resolved Fluorescence Assay (HTRF1 assay), inhibition of HDM2-p53 interaction
- Conditions: 2.5 nM GST-hMDM2, 5 nM biotinylated-p53, 200 mM KF
Threshold-based label: IC50 under 800 nM gives Condition met, IC50 not under 800 nM gives Condition not met.

In plain terms, does C[C@@H](C1CCCCC1)N1C(=O)[C@H](CC(=O)O)O[C@H](c2cccc(Cl)c2)[C@H]1c1ccc(Cl)cc1 (single isomer, unassigned) [Example 19] come in under 800 nM for IC50?
Condition met

In plain terms, does C[C@H](C1CCCCC1)N1C(=O)[C@H](CC(=O)O)O[C@H](c2cccc(Cl)c2)[C@H]1c1ccc(Cl)cc1 (single isomer, unassigned) [Example 18] come in under 800 nM for IC50?
Condition met

In plain terms, does O=C(O)C[C@@H]1O[C@H](c2cccc(Cl)c2)[C@@H](c2ccc(F)cc2)N(CC2CC2)C1=O [Example 56] come in under 800 nM for IC50?
Condition met

In plain terms, does CCN1C(=O)[C@@H](CC(=O)O)O[C@H](c2cccc(Cl)c2)[C@H]1c1ccc(Cl)cc1 [Example 44] come in under 800 nM for IC50?
Condition not met

In plain terms, does Cc1ccc([C@@H]2[C@@H](c3cccc(Cl)c3)O[C@@H](CC(=O)O)C(=O)N2CC2CC2)cc1 [Example 60] come in under 800 nM for IC50?
Condition met

In plain terms, does CCc1ccc([C@@H]2[C@@H](c3cccc(Cl)c3)O[C@@H](CC(=O)O)C(=O)N2CC2CC2)cc1 [Example 58] come in under 800 nM for IC50?
Condition not met
